assayedSystem: 3',5'-cyclic-AMP phosphodiesterase 4B (Homo sapiens)
Sequence (Q07343 whole entry): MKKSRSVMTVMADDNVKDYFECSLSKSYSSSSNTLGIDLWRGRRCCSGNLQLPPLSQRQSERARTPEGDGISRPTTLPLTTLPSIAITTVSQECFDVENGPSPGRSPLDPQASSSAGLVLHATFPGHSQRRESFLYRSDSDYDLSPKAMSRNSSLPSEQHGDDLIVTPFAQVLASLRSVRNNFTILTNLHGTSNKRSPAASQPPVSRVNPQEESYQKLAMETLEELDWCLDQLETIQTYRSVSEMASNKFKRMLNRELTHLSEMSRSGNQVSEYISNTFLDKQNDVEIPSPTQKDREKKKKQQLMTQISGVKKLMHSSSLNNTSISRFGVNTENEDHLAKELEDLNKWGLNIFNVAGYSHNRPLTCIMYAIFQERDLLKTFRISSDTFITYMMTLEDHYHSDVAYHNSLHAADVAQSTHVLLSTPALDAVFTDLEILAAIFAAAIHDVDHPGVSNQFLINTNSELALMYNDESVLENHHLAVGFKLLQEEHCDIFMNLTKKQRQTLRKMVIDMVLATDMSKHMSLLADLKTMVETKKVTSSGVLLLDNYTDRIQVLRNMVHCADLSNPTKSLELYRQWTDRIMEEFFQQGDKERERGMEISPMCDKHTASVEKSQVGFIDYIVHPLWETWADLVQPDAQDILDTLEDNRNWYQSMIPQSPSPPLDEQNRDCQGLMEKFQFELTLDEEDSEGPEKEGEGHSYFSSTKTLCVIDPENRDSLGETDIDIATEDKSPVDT
assayProcedure: Inhibition of recombinant His-tagged PDE4B1 (unknown origin) expressed in insect Sf9 cells using cAMP as substrate preincubated for 15 mins followed by substrate addition measured after 1 hr by luminescence assay
measure: pIC50
Answers are plain numbers, as −log10 of the molar value.

Endpoint output: pIC50 of CS(=O)(=O)Nc1ccc(NC(=O)Cn2cc(-c3ccccc3)nn2)cc1Oc1ccccc1 . Value? 5.31

----------
assayedSystem: 3',5'-cyclic-AMP phosphodiesterase 4B (Homo sapiens)
assayProcedure: Inhibition of recombinant His-tagged PDE4B1 (unknown origin) expressed in insect Sf9 cells using cAMP as substrate at 30 uM preincubated for 15 mins followed by substrate addition measured after 1 hr by luminescence assay relative to control
measure: inhibition

# compound, assayedSystem, inhibition
rows = [
    ("Cc1ccc(-c2cn(CC(=O)Nc3ccc(NS(C)(=O)=O)c(Oc4ccccc4)c3)nn2)cc1", "3',5'-cyclic-AMP phosphodiesterase 4B (Homo sapiens)", "36%"),
    ("CS(=O)(=O)Nc1ccc(NC(=O)Cn2cc(COc3ccc4ccccc4c3)nn2)cc1Oc1ccccc1", "3',5'-cyclic-AMP phosphodiesterase 4B (Homo sapiens)", "59.7%"),
    ("CS(=O)(=O)Nc1ccc(NC(=O)Cn2cc(-c3ccccc3)nn2)cc1Oc1ccccc1", "3',5'-cyclic-AMP phosphodiesterase 4B (Homo sapiens)", "64.1%"),
]

The following compounds each have a reported value; give each one's inhibition.
1. Cc1cc(OCc2cn(CC(=O)Nc3ccc(NS(C)(=O)=O)c(Oc4ccccc4)c3)nn2)ccc1Cl
2. CS(=O)(=O)Nc1ccc(NC(=O)Cn2cc(COc3ccccc3Cl)nn2)cc1Oc1ccccc1

1: 32.9%; 2: 42.5%

The following compounds each have a reported value; give each one's inhibition.
1. COc1ccc(C2CNC(=O)C2)cc1OC1CCCC1 (stereo unspecified)
2. CS(=O)(=O)Nc1ccc(NC(=O)Cn2cc(COc3ccccc3)nn2)cc1Oc1ccccc1
3. Cc1ccc(OCc2cn(CC(=O)Nc3ccc(NS(C)(=O)=O)c(Oc4ccccc4)c3)nn2)cc1

["94.1%", "51.2%", "56.7%"]

The following compounds each have a reported value; give each one's inhibition.
1. CS(=O)(=O)Nc1ccc(NC(=O)Cn2cc(COc3ccc(Cl)cc3)nn2)cc1Oc1ccccc1
2. CS(=O)(=O)Nc1ccc(NC(=O)Cn2cc(COc3ccc([N+](=O)[O-])cc3)nn2)cc1Oc1ccccc1

1: 51.3%; 2: 47.1%

Provenance of the data: ChEMBL document CHEMBL3091357
